Entry source: patent US20250250357A1

target: T1, human MSLN-R3-3 polypeptide (human); experiment: ELISA on coated antigen, antibody 0.01 nM
T1 construct: also called human MSLN-R3-3 protein; hMSLN-R3-3
measuredParameter: OD450 (OD450)
Write down the numeric answer in OD450 and omit the unit.

Here's what some known entries look like.
>>> endpointresult("S009-F2.58.8 (antibody, human IgG1, kappa, V domains shown, Human-murine chimeric antibody: murine VH/VL on human IgG1 heavy and kappa light constant regions) VH: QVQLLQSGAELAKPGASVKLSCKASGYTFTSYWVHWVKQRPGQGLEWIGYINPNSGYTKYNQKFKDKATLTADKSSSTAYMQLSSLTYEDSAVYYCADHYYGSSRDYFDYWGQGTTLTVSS VL: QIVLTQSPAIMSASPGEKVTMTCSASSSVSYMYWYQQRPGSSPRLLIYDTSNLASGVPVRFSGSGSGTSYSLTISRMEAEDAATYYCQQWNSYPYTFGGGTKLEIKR")
0.06
>>> endpointresult("S009-F2-56.12 (antibody, human IgG1, kappa, V domains shown, Human-murine chimeric antibody: murine VH/VL on human IgG1 heavy and kappa light constant regions) VH: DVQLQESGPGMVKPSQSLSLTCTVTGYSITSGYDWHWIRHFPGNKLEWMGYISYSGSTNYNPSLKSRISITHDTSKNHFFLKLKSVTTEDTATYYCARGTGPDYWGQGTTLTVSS VL: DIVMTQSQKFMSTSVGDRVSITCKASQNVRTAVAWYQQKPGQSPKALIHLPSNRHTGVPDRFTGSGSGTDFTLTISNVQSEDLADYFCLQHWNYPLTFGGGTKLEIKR")
0.05
>>> endpointresult("S009-F2.47.1 (antibody, human IgG1, kappa, V domains shown, Human-murine chimeric antibody: murine VH/VL on human IgG1 heavy and kappa light constant regions) VH: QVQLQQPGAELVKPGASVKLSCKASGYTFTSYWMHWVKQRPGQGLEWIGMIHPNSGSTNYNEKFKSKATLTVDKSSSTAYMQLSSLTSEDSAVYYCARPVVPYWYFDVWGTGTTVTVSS VL: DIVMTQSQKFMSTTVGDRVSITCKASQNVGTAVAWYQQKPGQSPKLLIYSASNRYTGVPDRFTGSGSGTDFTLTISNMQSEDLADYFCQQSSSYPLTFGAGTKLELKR")
0.05

Turning now to a further record.
Would you mind telling me what OD450 value was observed for S009-F2.39.3 (antibody, human IgG1, kappa, V domains shown, Human-murine chimeric antibody: murine VH/VL on human IgG1 heavy and kappa light constant regions) VH: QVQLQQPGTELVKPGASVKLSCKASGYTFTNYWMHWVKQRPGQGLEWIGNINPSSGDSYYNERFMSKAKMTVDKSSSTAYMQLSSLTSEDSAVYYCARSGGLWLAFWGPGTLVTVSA VL: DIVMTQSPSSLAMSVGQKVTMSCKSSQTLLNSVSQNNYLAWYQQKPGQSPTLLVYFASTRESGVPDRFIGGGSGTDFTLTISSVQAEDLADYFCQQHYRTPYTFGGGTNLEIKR ? 0.05
